Every entry's value here was drawn from PubChem BioAssay AID2060887.

Test system: 782815-120-R-J1-PDC complex spheroid viability;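 further: spheroids exposed to compounds for 7 days before reading; 100% = DMSO vehicle control viability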
PROTOCOL DESCRIPTION: Anticancer human tumor 782815-120-R-J1-PDC patient-derived colon adenocarcinoma cell line growth inhibition [RAS]
EXPERIMENTAL SETUP: second compound 0.003 µM; first compound 0.1 µM; active compounds read low
Text: RAS pathway inhibitors in Combinations in Complex Spheroids A high-throughput screen of multi-cell type tumor spheroids was designed to identify active combinations of RAS pathway inhibitors and targeted small molecules. Complex spheroids include a stromal component modeled by human endothelial cells (HUVEC) and fibroblasts modeled by human mesenchymal stem cells (MSCs). […] Compounds. […] If the clinical Cmax for an agent had not been determined, the highest concentration tested was 10 microM. […]
PROPERTY LABEL: viability, T/C (%)

1. C=CC(=O)Nc1cc(Nc2nccc(-c3cn(C)c4ccccc34)n2)c(OC)cc1N(C)CCN(C)C + CCn1c(-c2cc(N3CCN(C)CC3)cnc2C(C)OC)c2c3cc(ccc31)-c1csc(n1)CC(NC(=O)C1CC1C)C(=O)N1CCCC(N1)C(=O)OCC(C)(C)C2: 55.7
2. CCN1CCN(Cc2ccc(Nc3ncc(F)c(-c4cc(F)c5nc(C)n(C(C)C)c5c4)n3)nc2)CC1 + CCn1c(-c2cccnc2C(C)OC)c2c3cc(ccc31)N1CCOC(CC(NC(=O)C(C(C)C)N(C)C(=O)C3(F)CCN(C(=O)C#CC(C)(C)N(C)C)CC3)C(=O)N3CCCC(N3)C(=O)OCC(C)(C)C2)C1: 98
3. CC(Nc1ccc2c(c1)OCCn1cc(N3C(=O)OCC3C(F)F)nc1-2)C(N)=O (stereo not given) + CCn1c(-c2cccnc2C(C)OC)c2c3cc(ccc31)N1CCOC(CC(NC(=O)C(C(C)C)N(C)C(=O)C3(F)CCN(C(=O)C#CC(C)(C)N(C)C)CC3)C(=O)N3CCCC(N3)C(=O)OCC(C)(C)C2)C1: 94.5
4. C=CC(=O)Nc1cc(Nc2nccc(-c3cn(C)c4ccccc34)n2)c(OC)cc1N(C)CCN(C)C + CCn1c(-c2cccnc2C(C)OC)c2c3cc(ccc31)N1CCOC(CC(NC(=O)C(C(C)C)N(C)C(=O)C3(F)CCN(C(=O)C#CC(C)(C)N(C)C)CC3)C(=O)N3CCCC(N3)C(=O)OCC(C)(C)C2)C1: 91.9
5. Cc1nc(N2CCC3(CC2)COC(C)C3N)c(CO)nc1Sc1ccnc(N)c1Cl (stereo not given) + CCn1c(-c2cccnc2C(C)OC)c2c3cc(ccc31)N1CCOC(CC(NC(=O)C(C(C)C)N(C)C(=O)C3(F)CCN(C(=O)C#CC(C)(C)N(C)C)CC3)C(=O)N3CCCC(N3)C(=O)OCC(C)(C)C2)C1: 95.5
6. CC(C)n1nc(-c2ccc3oc(N)nc3c2)c2c(N)ncnc21 + CCn1c(-c2cccnc2C(C)OC)c2c3cc(ccc31)N1CCOC(CC(NC(=O)C(C(C)C)N(C)C(=O)C3(F)CCN(C(=O)C#CC(C)(C)N(C)C)CC3)C(=O)N3CCCC(N3)C(=O)OCC(C)(C)C2)C1: 78.2
7. CCN1CCN(Cc2ccc(Nc3ncc(F)c(-c4cc(F)c5nc(C)n(C(C)C)c5c4)n3)nc2)CC1 + CCn1c(-c2cc(N3CCN(C)CC3)cnc2C(C)OC)c2c3cc(ccc31)-c1csc(n1)CC(NC(=O)C1CC1C)C(=O)N1CCCC(N1)C(=O)OCC(C)(C)C2: 59.7
8. C=CC(=O)N1CCN(c2nc(OCC3CCCN3C)nc3c(F)c(-c4nc(N)cc(C)c4C(F)(F)F)c(Cl)cc23)C(C)C1 (stereo not given) + CCn1c(-c2cc(N3CCN(C)CC3)cnc2C(C)OC)c2c3cc(ccc31)-c1csc(n1)CC(NC(=O)C1CC1C)C(=O)N1CCCC(N1)C(=O)OCC(C)(C)C2: 49.6
9. C[C@@H](NC(=O)c1ncnc(N)c1Cl)c1ncc(C(=O)Nc2cc(C(F)(F)F)c(Cl)cn2)s1 + CCn1c(-c2cc(N3CCN(C)CC3)cnc2C(C)OC)c2c3cc(ccc31)-c1csc(n1)CC(NC(=O)C1CC1C)C(=O)N1CCCC(N1)C(=O)OCC(C)(C)C2: 69.4
10. NC1c2ccccc2OC12CCN(c1cnc3c(N4CCCc5ncccc54)n[nH]c3n1)CC2 (stereo not given) + CCn1c(-c2cc(N3CCN(C)CC3)cnc2C(C)OC)c2c3cc(ccc31)-c1csc(n1)CC(NC(=O)C1CC1C)C(=O)N1CCCC(N1)C(=O)OCC(C)(C)C2: 53.9
11. C=CC(=O)N1CCN(c2nc(OCC3CCCN3C)nc3c(F)c(-c4nc(N)cc(C)c4C(F)(F)F)c(Cl)cc23)C(C)C1 (stereo not given) + CCn1c(-c2cccnc2C(C)OC)c2c3cc(ccc31)N1CCOC(CC(NC(=O)C(C(C)C)N(C)C(=O)C3(F)CCN(C(=O)C#CC(C)(C)N(C)C)CC3)C(=O)N3CCCC(N3)C(=O)OCC(C)(C)C2)C1: 94.8
12. CC(C)n1nc(-c2ccc3oc(N)nc3c2)c2c(N)ncnc21 + CCn1c(-c2cc(N3CCN(C)CC3)cnc2C(C)OC)c2c3cc(ccc31)-c1csc(n1)CC(NC(=O)C1CC1C)C(=O)N1CCCC(N1)C(=O)OCC(C)(C)C2: 40.9
13. CC1(O)CCCC1n1c(=O)c(C(F)F)cc2cnc(NC3CCN(S(C)(=O)=O)CC3)nc21 (stereo not given) + CCn1c(-c2cccnc2C(C)OC)c2c3cc(ccc31)N1CCOC(CC(NC(=O)C(C(C)C)N(C)C(=O)C3(F)CCN(C(=O)C#CC(C)(C)N(C)C)CC3)C(=O)N3CCCC(N3)C(=O)OCC(C)(C)C2)C1: 64.5
14. CCC(CC)c1cc(NC2CCC(N)C2)n2nccc2n1 (stereo not given) + CCn1c(-c2cccnc2C(C)OC)c2c3cc(ccc31)N1CCOC(CC(NC(=O)C(C(C)C)N(C)C(=O)C3(F)CCN(C(=O)C#CC(C)(C)N(C)C)CC3)C(=O)N3CCCC(N3)C(=O)OCC(C)(C)C2)C1: 92.7
15. Nc1ccn(C2OC(CO)C(O)C2(F)F)c(=O)n1 (stereo not given) + CCn1c(-c2cc(N3CCN(C)CC3)cnc2C(C)OC)c2c3cc(ccc31)-c1csc(n1)CC(NC(=O)C1CC1C)C(=O)N1CCCC(N1)C(=O)OCC(C)(C)C2: 25
